Provenance of the data: patent US8691761B2

Biological target: hSSTR5 (Homo sapiens, UniProt P35346)
Construct: expressed in transfected cells; host or cells: CHO-K1 or CCL39 cells
Sequence (P35346 whole entry): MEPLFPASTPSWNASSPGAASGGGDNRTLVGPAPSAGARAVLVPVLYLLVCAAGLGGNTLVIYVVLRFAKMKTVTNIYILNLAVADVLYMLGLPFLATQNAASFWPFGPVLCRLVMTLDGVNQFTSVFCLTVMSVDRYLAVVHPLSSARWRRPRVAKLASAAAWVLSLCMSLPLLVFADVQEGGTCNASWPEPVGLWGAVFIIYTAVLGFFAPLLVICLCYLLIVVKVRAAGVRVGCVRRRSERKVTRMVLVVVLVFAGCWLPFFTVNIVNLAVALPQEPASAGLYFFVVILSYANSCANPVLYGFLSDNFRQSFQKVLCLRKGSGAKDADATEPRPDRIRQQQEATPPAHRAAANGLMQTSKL
Test: Receptor autoradiography, displacement of 125I-[Leu8,D-Trp22,Tyr25]-SRIF-28 from membrane pellet sections
Assay type: binding
Details: Table 3; mean ± SEM when N ≧ 3; read-out: sst5 binding affinity (IC50)
Bridge positions count the residues as written; N and C are the ends. Square brackets hold non-standard residues; d marks the D form. Peptide text beside a SMILES is read from it. Phe(4-NO2) = N[C@@H](Cc1ccc([N+](=O)[O-])cc1)C(=O)O; dPhe(4-NHCONH2) = NC(=O)Nc1ccc(C[C@@H](N)C(=O)O)cc1; 2Nal = N[C@@H](Cc1ccc2ccccc2c1)C(=O)O
Form field: IC50 (one value per entry).

Query string: hSSTR5 (Homo sapiens, UniProt P35346) / IC50 / C[C@@H](O)[C@@H]1NC(=O)[C@H](CCCCN)NC(=O)[C@@H](Cc2ccc(NC(N)=O)cc2)NC(=O)[C@H](Cc2ccc(O)cc2)NC(=O)[C@H](NC(=O)[C@@H](N)Cc2ccc([N+](=O)[O-])cc2)CSSC[C@@H](C(=O)N[C@@H](Cc2ccc3ccccc3c2)C(N)=O)NC1=O [compound 4] (H-[Phe(4-NO2)][dC]Y[dPhe(4-NHCONH2)]KTC[2Nal]-NH2; disulfide 2-7) : value?
Result string: > 1 µM

Query string: hSSTR5 (Homo sapiens, UniProt P35346) / IC50 / C[C@@H](O)[C@@H]1NC(=O)[C@H](CCCCN)NC(=O)[C@@H](Cc2c[nH]c3ccccc23)NC(=O)[C@H](Cc2ccc(NC(N)=O)cc2)NC(=O)[C@H](NC(=O)[C@@H](N)Cc2ccc(Cl)cc2)CSSC[C@@H](C(=O)N[C@@H](CC2CCCCC2)C(N)=O)NC1=O [compound 18] : value?
Result string: 0.247 µM
